Source: patent US20200024330A1

- assay-system: HIV-1 JR-CSF Env N396A (HIV-1 (isolate JR-CSF)) (UniProt P20871)
- measurement-notes: cell-based or functional assay
endpoint-name: Fold IC50 increase relative to wild-type

>  <binder>
PGT-123 (antibody, V domains shown) VH: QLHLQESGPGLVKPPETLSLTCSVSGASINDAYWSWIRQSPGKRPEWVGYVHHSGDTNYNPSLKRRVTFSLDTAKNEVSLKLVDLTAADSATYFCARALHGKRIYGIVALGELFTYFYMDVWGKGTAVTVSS VL: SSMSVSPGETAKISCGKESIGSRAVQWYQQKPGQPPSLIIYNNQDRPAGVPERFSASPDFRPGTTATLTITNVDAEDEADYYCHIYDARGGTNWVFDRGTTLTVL

>  <Fold IC50 increase relative to wild-type>
1.2 fold

$$$$
>  <binder>
PGT-131 (antibody, V domains shown) VH: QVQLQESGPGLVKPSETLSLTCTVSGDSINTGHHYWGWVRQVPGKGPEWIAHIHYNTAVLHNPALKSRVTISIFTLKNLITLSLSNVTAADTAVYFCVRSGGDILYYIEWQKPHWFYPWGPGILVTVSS VL: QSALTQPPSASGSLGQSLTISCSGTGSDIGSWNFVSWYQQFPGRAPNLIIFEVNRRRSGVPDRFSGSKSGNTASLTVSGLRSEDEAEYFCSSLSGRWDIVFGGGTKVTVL

>  <Fold IC50 increase relative to wild-type>
0.9 fold

$$$$

Alright, here's another binder for you.
Query block: Tell me Fold IC50 increase relative to wild-type reported for PGT-135 (antibody, V domains shown) VH: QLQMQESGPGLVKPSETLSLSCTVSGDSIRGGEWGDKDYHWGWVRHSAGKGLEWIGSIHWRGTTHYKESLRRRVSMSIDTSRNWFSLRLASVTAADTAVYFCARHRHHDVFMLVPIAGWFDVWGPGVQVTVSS VL: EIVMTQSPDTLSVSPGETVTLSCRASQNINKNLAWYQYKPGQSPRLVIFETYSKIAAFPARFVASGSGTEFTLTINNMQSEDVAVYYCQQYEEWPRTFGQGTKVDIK
Result block: 1 fold
